Tested on: corn (Zea mays)
Assay: Test A postemergence, corn
Type: in vivo
Conditions: Postemergence, 500 g ai/ha; visual injury vs untreated controls after approx. 10 days; 0 to 100 scale (0 no effect, 100 complete control)
quantity_name: Corn plant response rating
Could you keep your reply to the number by itself?

Give reported Corn plant response rating value for Cc1cc(F)c(C(=O)N2CCCCC2)cc1NS(=O)(=O)C(F)(F)F [Compound 211] 0

For the compound Cc1cc(Cl)c(NS(=O)(=O)C(F)(F)F)cc1C(=O)N1CCC(F)CC1 [Compound 201] , give its reported Corn plant response rating. 50

Annotate the compound Cc1cc(C)c(C2=NOC3(CCOCC3)C2)cc1NS(=O)(=O)C(F)(F)F [Compound 177] with its measured Corn plant response rating. 50

Please indicate Corn plant response rating recorded for Cc1cc(C)c(N(S(=O)(=O)C(F)(F)F)S(=O)(=O)C(F)(F)F)cc1C1=NOC2(CCCCCC2)C1 [Compound 158] 20

Supply Corn plant response rating value. Item: Cc1cc(C(F)(F)F)c(NS(=O)(=O)C(F)(F)F)cc1C(=O)N1CCCCC1 [Compound 165] 0

Annotate the compound Cc1cc(Cl)c(NS(=O)(=O)C(F)(F)F)cc1C1=NOC2(CCCCC2)C1 [Compound 221] with its measured Corn plant response rating. 40

Complete the entry with Corn plant response rating for Cc1cc(C)c(C2=NOC3CCCCC23)cc1NS(=O)(=O)C(F)(F)F (centres unmarked) [Compound 123] 70

Quote Corn plant response rating reported for Cc1cc(C#N)c(C(=O)N2CCCCC2)cc1NS(=O)(=O)C(F)(F)F [Compound 126] please. 20

----------
Can you tell me Plant response rating, Goosegrass for the items I'm about to list?
System: goosegrass (Eleusine indica)
Assay: Test A1 preemergence, goosegrass
Type: in vivo
Conditions: 125 g ai/ha, 0 to 100 scale, 0 no effect, 100 complete control
# print the numeric value only

Identify measured Plant response rating, Goosegrass corresponding to Cc1c(NS(=O)(=O)C(F)(F)F)cc(C2=NOC3(CCCC3)C2)c(C)c1C 100

Note down Plant response rating, Goosegrass recorded for CCOC1CC(c2cc(N(COC(=O)C(C)(C)C)S(=O)(=O)C(F)(F)F)c(C)cc2C)=NO1 (centres unmarked) 90

Look up and state reported Plant response rating, Goosegrass for Cc1c(C(=O)N2CCOCC2)cc(NS(=O)(=O)C(F)(F)F)c(Cl)c1F 100

Using the record for CCC1CC(c2cc(NS(=O)(=O)C(F)(F)F)c(C)cc2C)=NO1 (centres unmarked) , state its measured Plant response rating, Goosegrass. 100

Give reported Plant response rating, Goosegrass value for CCC1ON=C(c2cc(N(COC(=O)C(C)(C)C)S(=O)(=O)C(F)(F)F)c(C)cc2C)C1CC (centres unmarked) [Compound 344] 90

Return value of Plant response rating, Goosegrass for input Cc1cc(C)c(N(COC(=O)C(C)C)S(=O)(=O)C(F)(F)F)cc1C1=NOC2CCCC12 (centres unmarked) , no commentary. 90

Respond only with Plant response rating, Goosegrass recorded for Cc1cc(C)c(-n2nccc(C)c2=O)cc1NS(=O)(=O)C(F)(F)F 90

Using the record for Cc1cc(C)c(C2=NOC3COCC23)cc1NS(=O)(=O)C(F)(F)F (centres unmarked) , state its measured Plant response rating, Goosegrass. 90
